# targetDesc: GPIIb/IIIa (Homo sapiens, UniProt P08514)
# testProtocol: spectrofluorometry titration
pKd: −log10 of the molar value.
parameterMeasured: pKd

* PESGRCRGHLRRIYYNLES [RusPep (Rusvikunin-II peptide)] | 5.80
